Data export: Ki values recorded with UniProt P41594.
Sequence (P41594 whole entry): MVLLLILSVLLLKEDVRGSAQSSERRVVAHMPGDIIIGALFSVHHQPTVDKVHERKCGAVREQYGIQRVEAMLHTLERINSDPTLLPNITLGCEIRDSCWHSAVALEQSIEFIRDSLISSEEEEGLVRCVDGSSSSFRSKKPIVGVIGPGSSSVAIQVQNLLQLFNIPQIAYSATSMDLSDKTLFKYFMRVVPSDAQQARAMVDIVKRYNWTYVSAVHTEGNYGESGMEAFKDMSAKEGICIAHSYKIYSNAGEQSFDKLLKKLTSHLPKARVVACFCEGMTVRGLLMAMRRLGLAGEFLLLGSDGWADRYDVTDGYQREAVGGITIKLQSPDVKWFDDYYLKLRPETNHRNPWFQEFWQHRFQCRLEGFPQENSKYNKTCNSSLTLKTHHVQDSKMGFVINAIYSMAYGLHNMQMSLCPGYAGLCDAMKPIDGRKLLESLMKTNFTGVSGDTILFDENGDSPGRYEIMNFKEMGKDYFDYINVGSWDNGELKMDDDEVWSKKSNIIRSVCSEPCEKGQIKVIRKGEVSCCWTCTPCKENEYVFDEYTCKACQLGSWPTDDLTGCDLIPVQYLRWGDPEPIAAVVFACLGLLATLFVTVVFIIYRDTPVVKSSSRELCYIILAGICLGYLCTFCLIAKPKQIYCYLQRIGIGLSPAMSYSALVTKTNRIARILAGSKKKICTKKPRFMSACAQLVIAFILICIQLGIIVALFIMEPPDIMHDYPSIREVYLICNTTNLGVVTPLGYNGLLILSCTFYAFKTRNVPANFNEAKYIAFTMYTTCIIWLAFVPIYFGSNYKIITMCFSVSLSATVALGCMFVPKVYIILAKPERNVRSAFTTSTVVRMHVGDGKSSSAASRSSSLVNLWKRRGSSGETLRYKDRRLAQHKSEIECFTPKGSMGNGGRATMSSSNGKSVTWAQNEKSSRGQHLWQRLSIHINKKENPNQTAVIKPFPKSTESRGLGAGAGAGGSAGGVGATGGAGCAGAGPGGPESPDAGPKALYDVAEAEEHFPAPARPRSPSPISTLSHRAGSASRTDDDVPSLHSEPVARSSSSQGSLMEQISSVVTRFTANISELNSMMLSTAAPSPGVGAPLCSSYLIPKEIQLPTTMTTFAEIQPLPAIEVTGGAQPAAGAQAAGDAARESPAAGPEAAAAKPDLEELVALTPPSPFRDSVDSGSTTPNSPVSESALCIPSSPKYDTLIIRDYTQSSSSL
endpoint.label: Ki (nM)

A: Cc1cccc(-c2noc(C3CC(=O)N(c4ccc(F)cc4)C3)n2)c1 (single isomer, unassigned; (-))
B: O=C1CC(c2nc(-c3cccc(Cl)c3)no2)CN1c1ccc(F)cc1 (racemic)
**Q:** When the recorded Ki values are compared, which is smaller: that of A or that of B ? Write the label of whichever entry you select.
**A:** A

* * *

- protocol.details: Drug uptake in rat brain at 10 mg/kg, ip administered as single dose after 1 hr
- Assay type: ADME, organism-based
- Parameters: dose 10 mg/kg, route intraperitoneal
- experimental.conditions: read-out: Drug uptake
endpoint.label: concentration at 1 h (ng/g)

I: Cc1cccc(-c2noc(C3CC(=O)N(c4ccc(F)cc4)C3)n2)c1 (single isomer, unassigned; (-))
II: O=C1CC(c2nc(-c3cccc(Cl)c3)no2)CN1c1ccc(F)cc1 (racemic)
**Q:** // task: argmin of concentration at 1 h over [ I , II ] Choose, then provide that item's label.
**A:** II
